Each entry below lists one item and its recorded viability at 12.5 µM value.
- Tested on: KMS-12-PE cells
- Assay details: Apoptosis measurement (AnnexinV/PI staining) on myeloma cells
- Type: cell-based
- Run conditions: Homo sapiens, 12.5 µM, 48 h, read-out: % Alive (cells alive of control)
Give just the number in %; leave the unit off.

Solved entries:
>  <Compound>
O=c1cc(-c2ccc(O)cc2)oc2cc(O)cc(O)c12 [Compound 4, apigenin]

>  <Quantity name>
viability at 12.5 µM

>  <Unit>
%

>  <Reported result>
85.5

$$$$
>  <Compound>
O=c1c(O)c(-c2ccc(O)cc2)oc2cc(O)cc(O)c12 [Compound 7, kaempferol]

>  <Quantity name>
viability at 12.5 µM

>  <Unit>
%

>  <Reported result>
98

$$$$
>  <Compound>
O=C(O)/C=C/c1ccc(O)c(O)c1 [Compound 11, caffeic acid]

>  <Quantity name>
viability at 12.5 µM

>  <Unit>
%

>  <Reported result>
102

$$$$
>  <Compound>
COc1cc(/C=C/C(=O)O[C@H](Cc2ccc(O)c(O)c2)C(=O)O)ccc1O [Compound 13, (R)-(+)-3′-O-methylrosmarinic acid]

>  <Quantity name>
viability at 12.5 µM

>  <Unit>
%

>  <Reported result>
102

$$$$
>  <Compound>
O=c1cc(-c2ccc(O)c(O)c2)oc2cc(O)cc(O)c12 [Compound 5, luteolin]

>  <Quantity name>
viability at 12.5 µM

>  <Unit>
%

>  <Reported result>
80.3

$$$$
>  <Compound>
O[C@@H]1O[C@H](c2ccc3c(c2)OCO3)[C@H]2CO[C@H](c3ccc4c(c3)OCO4)[C@H]21 [Compound 10, (+)-9α-hydroxysesamin]

>  <Quantity name>
viability at 12.5 µM

>  <Unit>
%

>  <Reported result>
99

$$$$
>  <Compound>
COc1c(OC)c(O)c2c(=O)cc(-c3ccc(O)cc3)oc2c1OC [Compound 3, xanthomicrol]

>  <Quantity name>
viability at 12.5 µM

>  <Unit>
%

>  <Reported result>
69.5

$$$$

Field: next compound
Asked: Supply recorded viability at 12.5 µM for O=c1c(O)c(-c2ccc(O)c(O)c2)oc2cc(O)cc(O)c12 [Compound 8, quercetin] here.
Given back: 96.6
